EXPERIMENT_NOTES: A CellTox Green Cytotoxicity Assay to monitor cytotoxicity in HEK293 cells - 16 hour (AID 1224888); further: nearly all actives have a fitted effect of over 35% in size
SETUP_CONDITIONS: CellTox Green fluorescence; series mostly up to 76.8 µM
Results filed as inconclusive are left out. The source made the active and inactive calls. The call rests on the fitted dose curve; in most records, active means well fitted activation curve with a large enough effect in the repeat runs; inconclusive means weak or mixed curves; inactive means flat fitted curve, though single readings scatter.
In this exercise, the only acceptable responses are label 1 (active), label 0 (inactive)

Fill in: this test's call for CCC(=O)OCCc1ccccc1 is ___
label 0

Fill in: this test's call for CCN=C1C=CC(=C(c2ccc(N(CC)CC)cc2)c2ccc(N(CC)CC)cc2)c2ccccc21 is ___
label 1

Fill in: this test's call for Clc1ccc(C(Cn2ccnc2)OCc2ccsc2Cl)c(Cl)c1 (stereo not drawn) is ___
label 0

Fill in: this test's call for CC(=O)c1ccccc1N is ___
label 0

Fill in: this test's call for CCCCCCCCCCCCCC[n+]1ccccc1 is ___
label 1

Fill in: this test's call for CC(C)(c1cc(Br)c(OCCO)c(Br)c1)c1cc(Br)c(OCCO)c(Br)c1 is ___
label 0

Fill in: this test's call for CC(C)(c1cc(Br)c(O)c(Br)c1)c1cc(Br)c(O)c(Br)c1 is ___
label 0

Fill in: this test's call for CC(=O)Oc1ccc(C2(c3ccc(OC(C)=O)cc3)Oc3ccccc3NC2=O)cc1 is ___
label 0

Fill in: this test's call for O=C(Nc1ccc(Cl)c(Cl)c1)c1cc(Cl)cc(Cl)c1O is ___
label 0

Fill in: this test's call for C[Si](C)O[Si](C)C is ___
label 0

Fill in: this test's call for OCCC(O)CO (stereo not drawn) is ___
label 0

Fill in: this test's call for COC(=O)[C@]1(C)CCC[C@@]2(C)[C@H]1CC=C1C=C(C(C)C)CC[C@@H]12 is ___
label 1

Fill in: this test's call for O=CC1CC1 is ___
label 0
